assay: NCI Yeast Anticancer Drug Screen. Data for the mec2-1 strain (AID 157); conditions: S. cerevisiae mec2-1 strain, at 50.0 µM, hits give high values
Compounds without any hit were thinned out: in the full panel of roughly 79,000, 15% have a hit.
metric: growth inhibition (%)
// units = %; emit number, no label

| compound | metric | measured-result |
| --- | --- | --- |
| N/C(=N\N=C/c1ccc(O)c(O)c1O)NO | growth inhibition | 17.8 |
| CN(C)CCCNc1c2ccccc2nc2ccc(F)cc12 | growth inhibition | 24.4 |
| FC1(F)C2=C(SC3=C(S2)C(F)(F)C3(F)F)C1(F)F | growth inhibition | 70.5 |
| O=[N+]([O-])/C=C/C=C/c1ccco1 | growth inhibition | 64.2 |
| C=CS(=O)(=O)Cc1ccc(Cl)cc1 | growth inhibition | 97.2 |

growth inhibition measured on CC(=O)OC(OC(C)=O)c1ccc([N+](=O)[O-])o1 = 99

growth inhibition measured on COC(=O)C1(C)CCCC2(C)C3CCC4CC3(C=C4CO)CCC12 (stereo not given) = 43.1

* * *

Each entry below carries its recorded growth inhibition.
assay: NCI Yeast Anticancer Drug Screen. Data for the cln2 rad14 strain (AID 165);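 also: 0% = growth equal to vehicle treated cultures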; conditions: S. cerevisiae cln2 rad14 strain, at 5.0 µM (retest, dose inferred, filed as 0.5), hits give high values
This is part of a sample that, as a whole, favours compounds with a hit. Of some 79,000 tested, about 15% had one in any assay.
// units = %; emit number, no label

Example entries begin here.
| compound | growth inhibition [%] |
| --- | --- |
| Cn1c(=O)ccc2cc(C(=O)c3ccccc3)ccc21 | 39 |
| O=C(/C=N/O)Nc1ccc(Cl)c(I)c1 | 5 |
| N=c1n(CC(=O)NC23CC4CC(CC(C4)C2)C3)c2ccccc2n1Cc1ccc(Cl)cc1 | -2 |
| CCO/N=C1\CCCCC1SS(=O)(=O)O (stereo unspecified) | 0 |
| COc1cc(C2C(Cl)C(=O)N2NC(=O)c2ccccc2O)cc(OC)c1OC (stereo unspecified) | -2 |

growth inhibition measured on COc1ccc2c(c1)C1(C)CCCC(C)(C(=O)O)C1CC2 (stereo unspecified) = -103

* * *

assay: NCI Yeast Anticancer Drug Screen. Data for the mlh1 rad18 strain (AID 175); details: S. cerevisiae mlh1 rad18 strain growth inhibition; at 5.0 µM (retest, dose inferred, filed as 0.5); hits give high values
This is part of a sample that, as a whole, favours compounds with a hit. Of some 79,000 tested, about 15% had one in any assay.
metric: growth inhibition (%)
// units = %; emit number, no label

Example entries begin here.
| compound | measured-result |
| --- | --- |
| CN(C)CCCNc1ccc(O)c2c1C(=O)c1ccccc1C2=O | 97 |
| C=CCOC(=O)N(C(=O)OCC=C)C(Cc1ccc(O)cc1)C(=O)NNc1ccccc1 (centres undefined) | 20 |
| CC12OC(=O)C(C(N)=O)=C1C=C(c1ccccc1)CC2c1ccccc1 (centres undefined) | 11 |
| C=CCOC(=O)CC(OC(C)=O)C(CC)CC(C)C (centres undefined) | 0 |
| O=Cc1ccc2c(c1)CC1(C2)Cc2ccc3c(c2C1)CCC3 (centres undefined) | 1 |
| Cc1ccc(OC/C=C/c2cccc(C#N)c2)cc1 | -5 |
| N/C(CC(=O)NOC(=O)c1ccccc1)=N/OC(=O)c1ccccc1 | 27 |
| CC(=O)OCCCCCCCCCCCCCCO | -2 |

growth inhibition measured on N#Cc1c(Cl)cc(Cl)n2c1nc1ccccc12 = 43

growth inhibition measured on CC(/C=N/NS(=O)(=O)c1ccc(C)cc1)=C(c1ccccc1)c1ccccc1 = 62

growth inhibition measured on NNc1ccccc1[N+](=O)[O-] = -11

growth inhibition measured on CSC1=Nc2ccccc2SC(c2ccccc2)C1c1ccccc1 (centres undefined) = 3

growth inhibition measured on O=C1c2ccccc2-c2nnc3c(c21)Cc1ccccc1C3 = -6

growth inhibition measured on CC(=O)OC(c1ccc(Cl)cc1)c1ccc(Cl)cc1 = -22

growth inhibition measured on COC(=O)C1(C)CC2C(C)(CCC3(C)C4=CC=C5C(=CC(=O)C(O)=C5C)C4(C)CCC23C)CC1O (centres undefined) = 50

growth inhibition measured on CCCCCCCCCCCC[n+]1cc2ccccc2cc1C = 97

growth inhibition measured on N#C/C(=C/c1ccc([N+](=O)[O-])o1)c1ccccc1 = -21

growth inhibition measured on COc1ccc(-c2c(-c3ccccc3)c(C)nc3[nH]c(=S)[nH]c(=S)c23)cc1OC = -30

growth inhibition measured on CC(C)c1cccc(O)c1O = -1

growth inhibition measured on CCC1CN2CCc3cc(OC)c(OC)cc3C2CC1CC1c2cc(OC)c(OC)cc2CCN1C(=O)C(Cc1c[nH]c2ccccc12)NC(=O)OC(C)(C)C (centres undefined) = -3

growth inhibition measured on O=C(CC1(O)C(=O)Nc2c(Cl)cccc21)c1ccc(Cl)cc1 (centres undefined) = -7

growth inhibition measured on Nc1ncnc2c1cnn2C1CCCCC1 = 1

growth inhibition measured on Cn1c(Sc2ccc(-c3cccnc3)n2C)ccc1-c1cccnc1 = -5

growth inhibition measured on Cc1ccc(NC(=S)SCc2ccc(Cl)cc2)cc1C = 1

* * *

Experiment: NCI Yeast Anticancer Drug Screen. Data for the sgs1 mgt1 strain (AID 161);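 also: 0% = growth of cultures given vehicle only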
Details: S. cerevisiae sgs1 mgt1 strain, at 50.0 µM (retest, dose inferred, filed as 5.0), hits give high values
Method: Growth inhibition of yeast strains with defined genetic alterations is measured as a screen for potential anti-cancer activity. Selected strains with alterations in DNA damage repair or cell cycle control were exposed to compounds and growth inhibition was measured relative to vehicle treated controls. The strain used in this assay is sgs1 mgt1
About 79,000 compounds went through this panel and 15% of them were active in at least one assay; those are over-represented in the sample as a whole.
Each entry below carries its recorded growth inhibition.
// units = %; emit number, no label

Example entries begin here.
| compound | units-of-measure | growth inhibition |
| --- | --- | --- |
| c1ccc([P+](C[P+](c2ccccc2)(c2ccccc2)c2ccccc2)(c2ccccc2)c2ccccc2)cc1 | % | 99 |
| COc1cc2c[n+](C)c3c4cc(OC)c(OCc5ccccc5)cc4c(OCc4ccccc4)cc3c2cc1OC | % | 94 |
| CN(C)CCOC(=O)C1(CCC2CCCCC2)CCCCC1 | % | 57 |
| Clc1cc[c]([Sn]([Cl])([O][Sn]([Cl])([c]2ccc(Cl)cc2)[c]2ccc(Cl)cc2)[c]2ccc(Cl)cc2)cc1 | % | 97 |
| O=C1/C(=C\c2ccc(Cl)cc2Cl)Sc2scc(-c3cccc([N+](=O)[O-])c3)[n+]21 | % | 98 |

growth inhibition measured on CCCCCc1cc(Cl)cc(Cl)c1O = 26

growth inhibition measured on CC1SC(c2ccc(Cl)cc2)N2C(=O)C(C)SC(c3ccc(Cl)cc3)N2C1=O (configuration not stated) = 95

* * *

assay: NCI Yeast Anticancer Drug Screen. Data for the cln2 rad14 strain (AID 165);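 also: 0% = growth equal to vehicle treated cultures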; details: S. cerevisiae cln2 rad14 strain, at 5.0 µM (retest, dose inferred, filed as 0.5)
This is part of a sample that, as a whole, favours compounds with a hit. Of some 79,000 tested, about 15% had one in any assay. Activity calls are given as the source filed them. No stated cut-off is given here; in the data, active means growth inhibition above about 70%; inactive means the rest.
Answer with one of the outcomes 1.0 = active, 0.0 = inactive

Worked cases, answers included:
| compound | class-assignment |
| --- | --- |
| COc1cc(OC)c(OC)cc1/C=C\c1nccc2ccccc12 | 0.0 |
| CC(C(=O)c1ccc(Cl)cc1)C1OC(=O)C(Cl)=C1Cl (stereo unspecified) | 0.0 |
| C=CCOc1cc(NC(=S)c2sccc2C)ccc1Cl | 0.0 |

Query string: Outcome logged for CCCCCCCCCCOC(=O)c1cccnc1 in this assay:
Result string: 0.0

* * *

assay: NCI Yeast Anticancer Drug Screen. Data for the mec2-1 strain (AID 157); settings: S. cerevisiae mec2-1 strain, at 50.0 µM, hits give high values
Compounds without any hit were thinned out: in the full panel of roughly 79,000, 15% have a hit.
metric: growth inhibition (%)
// units = %; emit number, no label

Example entries begin here.
| compound | units-of-measure | growth inhibition |
| --- | --- | --- |
| O=C(CSc1cc[o+]cc1)c1cccc([N+](=O)[O-])c1 | % | 81.8 |
| CN(C)CC(O)c1cc(-c2ccc(Cl)cc2)nc2c(Cl)cc(Cl)cc12 (stereo unspecified) | % | 99.4 |
| O=c1onc(-c2ccc(Cl)cc2)c2ccccc12 | % | 16.4 |
| c1ccc([P+](C[P+](c2ccccc2)(c2ccccc2)c2ccccc2)(c2ccccc2)c2ccccc2)cc1 | % | 99.5 |
| Cc1ccc(NC(=S)SCc2ccc(Cl)cc2)cc1C | % | 98.2 |

growth inhibition measured on Clc1ccc(/C=N\Nc2c3ccccc3nc3ccccc23)cc1Cl = 14.6

* * *

assay: NCI Yeast Anticancer Drug Screen. Data for the mlh1 rad18 strain (AID 175); conditions: S. cerevisiae mlh1 rad18 strain growth inhibition; at 50.0 µM (retest, dose inferred, filed as 5.0); hits give high values
The panel holds about 79,000 compounds, 15% with a hit somewhere; the sample as a whole holds those more often.
Decide by growth inhibition: equal to or exceeding 40% means true, less means false.

| compound | class-assignment |
| --- | --- |
| CSc1nnc(CCC(=O)Nc2c(C)cccc2C(C)(C)C)o1 | false |
| COc1ccc(Oc2cc3c[n+](C)ccc3cc2OC)cc1 | true |
| C[n+]1c2ccccc2cc2[nH]c3ccccc3c21 | true |
| CC(=O)c1c(-c2ccco2)c(C#N)c(=S)n(C2OC(CO)C(O)C(O)C2O)c1-c1ccccc1 (stereo unspecified) | true |
| O=C(Oc1ccc(Cl)cc1)Oc1ccc(Cl)cc1 | false |

Moving on to the next compound.
Query string: Check the entry N/C(=N\N=C/c1ccc(O)c(O)c1O)NO : does growth inhibition equal or exceed 40%?
Result string: false

Source: PubChem BioAssay (NCI)
